Assay: in vitro
Details: human, hela cells, % viability
viability at 28.5 h, 10 µM overview
Please respond with the number in % and leave the unit unwritten.

Known results for compounds:
>>> result("O=C(Cc1ccc2c(c1)OCO2)Nc1nn(Cc2ccc(C(F)(F)F)cc2)c2ccccc12 [CBK048401]")
115
>>> result("Cc1ccc(C)c(Nc2nc3nonc3nc2N2CCOCC2)c1 [CBK262491]")
88.8
>>> result("CN1CCN(c2ccc(NC(=O)c3cccc(-c4cc5ccccc5oc4=O)c3)cc2Cl)CC1 [CBK269689]")
83.5
>>> result("COc1cc2c(cc1-c1cn(CCN3CCCOC3=O)nn1)CCC2 [CBK306515]")
107
>>> result("CCNC(=O)[C@H]1CC[C@]2(CC1)CNC(=O)c1cc(Cl)ccc1O2 [CBK284890]")
95.4
>>> result("O=C(c1cccs1)N1CCN(S(=O)(=O)c2cccc([N+](=O)[O-])c2)CC1 [CBK266184]")
94.7
>>> result("O=C(Cc1cn2ccsc2n1)Nc1ccc(N2CCCCC2)cc1 [CBK306185]")
79
>>> result("Cc1cc(COc2ccc(C(F)(F)F)cn2)no1 [CBK115792]")
91.7

Output viability at 28.5 h, 10 µM of O=C(CN1C2CCC1CC(O)(c1ccco1)C2)Nc1ccc(F)cc1 (stereo not shown) [CBK284062]
87.6

Output viability at 28.5 h, 10 µM of N#CC1(NC(=O)CN2CCOC(Cn3cccn3)C2)CCCC1 (stereo not shown) [CBK304911]
95.8

Output viability at 28.5 h, 10 µM of CCN(Cc1cnn(C)c1)[C@H]1CCO[C@@H](c2ccccc2-c2ccc(OC)cc2)C1 [CBK285854]
98

Output viability at 28.5 h, 10 µM of CCC1CCCCN1C(=O)c1cncc(Br)c1 (stereo not shown) [CBK076699]
107

Output viability at 28.5 h, 10 µM of O=C(Nc1ncnc2c1[nH]c(=O)n2C1CC(O)C(CO)O1)c1ccccc1 (stereo not shown) [CBK201250]
94.6

====

Assay: in vitro
Conditions: human, hela cells, % viability
measurementType: viability at 28.5 h, 10 µM (%)
Please respond with the number in % and leave the unit unwritten.

Known results for molecules:
>>> result("O=C(CCC1CCCCC1)Nc1c[nH]c(=O)[nH]c1=O")
90.4
>>> result("COCCNC(=O)C1CCN(c2nc3c(-c4ccccc4F)csc3c(=O)[nH]2)CC1")
92.6
>>> result("Oc1ccc(Cn2ccnc2)c2cccnc12")
89.3

Output viability at 28.5 h, 10 µM of "O=C(O)C[C@@H]1CCN(C(=O)c2ccco2)C[C@@H]1CC1=NCCc2cc(F)ccc21"
91.1

Output viability at 28.5 h, 10 µM of O=CN1C2CCC1c1cnc3cc(-c4cccc(F)c4)nn3c1C2 (stereo not drawn)
91.9

Output viability at 28.5 h, 10 µM of c1ccc2c3c([nH]c2c1)C12CCN(CC1)C(c1ccncc1)N2CC3 (stereo not drawn)
88.5

Output viability at 28.5 h, 10 µM of "O=c1[nH]c(NCc2ccccc2)nc2c1CCCC2"
89.9

Output viability at 28.5 h, 10 µM of CCC(c1ccccc1)N1CCN(Cc2noc(C)n2)CC1 (stereo not drawn)
90.3

Output viability at 28.5 h, 10 µM of "CCn1ncc(CN2CCC(O)(c3ccc(C)cc3)CC2)c1C"
90.2

Output viability at 28.5 h, 10 µM of "Cc1ccc2c(c1)C(C[C@H]1CN(C(=O)C3CCCC3)CC[C@H]1CC(=O)O)=NCC2"
88.5

Output viability at 28.5 h, 10 µM of "O=C(CN1C(=O)N2CCCN=C2c2ccccc21)NC1CCCCC1"
88.8

Output viability at 28.5 h, 10 µM of COc1ccc([C@@]23CC[C@@H](NC(=O)Nc4cccc(SC)c4)C[C@@H]2N(C)CC3)cc1OC [CBK036459T]
91.1

====

Assay: in vitro
Conditions: human, hela cells, % viability
// classify: if (viability at 28.5 h, 10 µM < 90%) Fulfilled else Not fulfilled

Take a look at these entries with their results.
>>> assignedcategory("NC1CCN(c2nccnc2OCCOc2cccnc2)CC1 [CBK003889F]")
"Fulfilled"
>>> assignedcategory("O=C(Nc1cc([N+](=O)[O-])ccc1O)c1ccc2c(c1)C(=O)N(Cc1cccnc1)C2=O")
"Not fulfilled"
>>> assignedcategory("COCCCN(Cc1ccccn1)Cc1ccc(F)cc1F")
"Not fulfilled"
>>> assignedcategory("Cc1csc(NC(=O)Cc2ccccc2F)n1")
"Fulfilled"

Say whether its viability at 28.5 h, 10 µM is strictly beneath 90%. Entry: O=C1NC(=O)C(CCCCN2CCCC3(CCN(C(=O)Cc4c[nH]c5ccccc45)C3)C2)N1 (centres unmarked)
Fulfilled

====

Test: in vitro
Details: human, hela cells, % viability
viability at 28.5 h, 10 µM overview
Please state the value followed by its unit.

Known results for molecules:
>>> result("CC(CCc1ccccc1)NC(=O)CC1COc2ccccc2O1 (stereo not shown)")
"103%"
>>> result("CC(=O)N1CCCC(c2nc(-c3ccncc3)ncc2-c2ccccc2)C1 (stereo not shown)")
"82.2%"
>>> result("Cc1cccc(C(C)(C)C)c1OCCn1ccnc1")
"109%"
>>> result("CSc1nsc(SCC(=O)c2ccc3c(c2)OCCO3)n1")
"108%"
>>> result("CC(=O)Nc1ccc(S(=O)(=O)/N=C(\\Nc2nc(C)cc(C)n2)Nc2ccccc2F)cc1")
"106%"
>>> result("CCN1CC2(CCCN(Cc3cncn3C3CCCCC3)C2)CCC1=O (stereo not shown)")
"98.1%"
>>> result("NC1=C(c2nc3ccccc3s2)C(=O)CN1CCN1CCOCC1")
"93.1%"
>>> result("Cn1cc(-c2nccnc2OC2CCCCC2)cn1")
"99.7%"
>>> result("CS(=O)(=O)Nc1ncc(Br)cc1C(=O)NCc1ccc(F)cc1")
"89.6%"
>>> result("CS(=O)(=O)N1CCc2cc(-c3csc(C4CC4)n3)ccc21")
"70.5%"

Output viability at 28.5 h, 10 µM of "O[C@@]1(c2ccccn2)CC[C@H]2CN(Cc3ccccc3F)C[C@H]21"
94.3%

Output viability at 28.5 h, 10 µM of COc1ccc(C(=O)CCCN2CCc3c([nH]c4ccc(OC)cc34)C2)cc1 [CBK083515T]
101%

Output viability at 28.5 h, 10 µM of "CS(=O)(=O)c1ccc(-c2nccnc2N2CCN(c3ccncc3)CC2)cc1"
98.5%

====

Assay: in vitro
Conditions: human, hela cells, % viability
viability at 28.5 h, 10 µM overview

Known results for compounds:
>>> result("O=c1cc(-c2ccccc2)nc(N2CCOCC2)[nH]1")
"93.9%"
>>> result("O=C(Cn1nnc(-c2ccc3c(c2)OCO3)n1)Nc1ccccc1C(=O)O")
"101%"

Output viability at 28.5 h, 10 µM of "CC(C)Oc1ncc(C(=O)NCc2cccc(NC(N)=O)c2)cc1Cl"
94.4%

Output viability at 28.5 h, 10 µM of "COc1ccc(-c2nc(NC(=O)c3cccc(S(C)(=O)=O)c3)cnc2-c2ccc(F)cc2)cc1"
100%

====

viability at 28.5 h, 10 µM overview
Experiment: in vitro
Details: human, hela cells, % viability
Please respond with the number in % and leave the unit unwritten.

Known results for compounds:
>>> result("Cc1cc(CNC(=S)Nc2ccc(S(N)(=O)=O)cc2)nn1C [CBK267077]")
98.7
>>> result("CCC(=O)NC(N(Cc1ccccc1)Cc1ccccc1)C(Cl)(Cl)Cl (stereo not shown) [CBK261022]")
90.9
>>> result("CCOC(=O)C1CCCN(Cc2nnsc2Cl)C1 (stereo not shown) [CBK304848]")
95.7
>>> result("CCSc1ccc(-c2cc(N(C)c3cccc(C)c3)n3nccc3n2)cc1 [CBK037115]")
100
>>> result("CCCNC(C)C(=O)Nc1c(C)csc1C(=O)O (stereo not shown) [CBK287064]")
113

Output viability at 28.5 h, 10 µM of NC(=O)CNC(=O)C1CCCN(c2nc3c(-c4ccccc4)csc3c(=O)[nH]2)C1 (stereo not shown) [CBK215487]
112

====

Test: in vitro
Conditions: human, hela cells, % viability
viability at 28.5 h, 10 µM overview
Please respond with the number in % and leave the unit unwritten.

Output viability at 28.5 h, 10 µM of Cc1cccc(-c2n[nH]c(=S)n2CC(=O)Nc2cccc(C#Cc3ccccn3)c2)c1 [CBK296633]
92.8

====

viability at 28.5 h, 10 µM overview
Assay: in vitro
Settings: human, hela cells, % viability
Please respond with the number in % and leave the unit unwritten.

Known results for compounds:
>>> result("CCN(CC)C(=O)c1sc2nc(-c3cccs3)nc(C)c2c1N [CBK115366]")
100
>>> result("CN1CCCC1CCOc1ncccc1OCCO (stereo not drawn) [CBK039176]")
118
>>> result("Cc1cc(C)n(C(C)CC(=O)NC(C)c2nc3ccccc3s2)n1 (stereo not drawn) [CBK281469]")
93.2
>>> result("N#Cc1sc(-c2ccc(F)cc2)cc1NC(=O)c1cccc([N+](=O)[O-])c1 [CBK066845]")
93.3

Output viability at 28.5 h, 10 µM of COc1ccc(OCCNC(=O)c2cc(Br)cnc2N(C)C(C)=O)cc1 [CBK076467]
104

Output viability at 28.5 h, 10 µM of O=C(O)CCc1ccc(-c2ccc(F)cc2)n1-c1cc(Cl)ccc1Cl [CBK264754]
111

Output viability at 28.5 h, 10 µM of CCCN(C)Cc1ccc(-c2cn(CC(=O)NCc3ccc(OCC(F)F)cc3)nn2)cc1 [CBK166365]
106

Output viability at 28.5 h, 10 µM of COc1ccc(CC(=O)N2CCCC(c3nc(C)c4c(n3)N(CC3CC3)CCC4)C2)cc1 (stereo not drawn) [CBK286228]
100

Output viability at 28.5 h, 10 µM of O=C(O)CCC(=O)CCC(=O)c1ccc(F)cc1 [CBK287191]
87.3

Output viability at 28.5 h, 10 µM of Cc1ccc2[nH]c3nc(N/N=C/c4ccc(-c5cccc([N+](=O)[O-])c5)o4)nnc3c2c1 [CBK262365]
106

Output viability at 28.5 h, 10 µM of O=C(NCc1ccccn1)c1ccc(CNS(=O)(=O)c2cccc(Cl)c2)cc1 [CBK267297]
100

Output viability at 28.5 h, 10 µM of O=[N+]([O-])c1cccc(-c2cc(Nc3ccc4[nH]ccc4c3)ncn2)c1 [CBK090860]
108

Output viability at 28.5 h, 10 µM of C=CCOC(=O)N1CCC(C(=O)NC(c2ccccn2)c2ccccc2C)CC1 (stereo not drawn) [CBK059689]
94

Output viability at 28.5 h, 10 µM of N#Cc1c(C(F)(F)F)cc(-c2cccs2)nc1SCC(O)CN1CCSCC1 (stereo not drawn) [CBK265947]
88.2

Output viability at 28.5 h, 10 µM of Cc1cc2c(cc3c(=O)n(CC(=O)NC4CCC4)nc(C)n32)s1 [CBK284118]
107
